Each entry below carries its reported residual activity.
target: PASK (human) (UniProt Q96RG2); test: radiometric filter-binding kinase assay, Kinase HotSpot; settings: compound 0.5 µM; ATP 10 µM
Sequence (Q96RG2 whole entry, looked up): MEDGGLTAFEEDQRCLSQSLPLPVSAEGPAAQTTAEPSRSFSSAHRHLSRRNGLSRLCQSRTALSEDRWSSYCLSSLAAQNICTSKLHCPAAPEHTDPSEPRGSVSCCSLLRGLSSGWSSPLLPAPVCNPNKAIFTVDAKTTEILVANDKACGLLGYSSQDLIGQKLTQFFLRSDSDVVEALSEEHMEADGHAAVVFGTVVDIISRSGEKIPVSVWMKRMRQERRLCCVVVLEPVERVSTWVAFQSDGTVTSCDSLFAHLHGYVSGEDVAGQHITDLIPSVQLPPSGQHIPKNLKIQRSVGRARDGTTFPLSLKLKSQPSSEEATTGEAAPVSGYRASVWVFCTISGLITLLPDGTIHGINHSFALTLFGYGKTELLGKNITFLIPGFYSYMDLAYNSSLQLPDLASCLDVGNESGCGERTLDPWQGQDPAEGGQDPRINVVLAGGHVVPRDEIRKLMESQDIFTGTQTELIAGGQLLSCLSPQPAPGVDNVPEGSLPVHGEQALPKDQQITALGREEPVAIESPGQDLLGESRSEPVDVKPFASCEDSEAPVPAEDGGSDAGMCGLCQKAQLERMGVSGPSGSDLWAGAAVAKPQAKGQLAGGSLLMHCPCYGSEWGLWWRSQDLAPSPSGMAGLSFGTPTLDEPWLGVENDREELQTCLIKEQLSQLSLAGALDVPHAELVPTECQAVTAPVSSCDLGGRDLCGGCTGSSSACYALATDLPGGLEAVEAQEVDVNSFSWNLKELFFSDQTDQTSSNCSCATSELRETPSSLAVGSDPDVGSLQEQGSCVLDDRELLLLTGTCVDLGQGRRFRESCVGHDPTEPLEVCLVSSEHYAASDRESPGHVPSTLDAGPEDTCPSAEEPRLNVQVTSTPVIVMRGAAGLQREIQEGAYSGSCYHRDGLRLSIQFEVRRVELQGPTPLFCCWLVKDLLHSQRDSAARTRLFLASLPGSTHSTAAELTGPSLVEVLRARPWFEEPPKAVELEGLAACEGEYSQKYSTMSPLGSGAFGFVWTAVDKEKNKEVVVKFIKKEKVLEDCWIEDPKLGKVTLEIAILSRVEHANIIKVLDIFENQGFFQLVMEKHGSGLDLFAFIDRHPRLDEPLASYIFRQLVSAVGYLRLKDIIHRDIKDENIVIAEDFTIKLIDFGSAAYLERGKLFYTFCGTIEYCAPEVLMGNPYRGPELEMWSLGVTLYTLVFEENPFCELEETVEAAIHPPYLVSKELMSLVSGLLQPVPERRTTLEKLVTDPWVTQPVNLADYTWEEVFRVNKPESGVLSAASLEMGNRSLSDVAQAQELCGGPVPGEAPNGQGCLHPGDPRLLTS
Give the value, in units of %, as a plain number.

> print(dat)
                           substance.smiles  reported
1  CN([C@@H](Cc1ccc(OS(=O)(=O)c2cccc3cnccc23)cc1)C(=O)N1CCN(c2ccccc2)CC1)S(=O)(=O)c1cccc2cnccc12       103
2  O=C1NC(=O)C(c2cn(CCCO)c3ncccc23)=C1c1cnccn1      97.1

Here is the next item to consider.
What does the data say about its residual activity? Entry: "COc1cc2ncc(-c3ccccc3)nc2cc1OC"
98.9
